These entries and their values trace back to PubChem BioAssay AID2060885.

So I've got a bunch of compounds here, and I need their viability, T/C values.
System: NCI-H23 complex spheroids with HUVEC/MSC, viability
Assay: Anticancer human tumor NCI-H23 cell line growth inhibition [RAS];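 further: spheroids exposed to compound for 7 days; 100% = DMSO vehicle control viability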
Conditions: second compound 1 µM; first compound 0.316 µM; stronger effect = lower value
Report the value in % with no unit label.

Asked: Quick one: viability, T/C of O=C(c1ccc(F)c(F)c1Nc1ccc(I)cc1F)N1CC(O)([C@@H]2CCCCN2)C1 + C#Cc1c(F)ccc2cc(O)cc(-c3ncc4c(N5CC6CCC(C5)N6)nc(OCC56CCCN5CC(F)C6)nc4c3F)c12 ?
Given back: 34.4

Asked: Name the reported viability, T/C value associated with the compound CCN1CCN(Cc2ccc(Nc3ncc(F)c(-c4cc(F)c5nc(C)n(C(C)C)c5c4)n3)nc2)CC1 + C#Cc1c(F)ccc2cc(O)cc(-c3ncc4c(N5CC6CCC(C5)N6)nc(OCC56CCCN5CC(F)C6)nc4c3F)c12
Given back: 40.4

Asked: Requested field: viability, T/C. Item: C[C@@H](NC(=O)c1ncnc(N)c1Cl)c1ncc(C(=O)Nc2cc(C(F)(F)F)c(Cl)cn2)s1 + C=CC(=O)N1CCN(c2nc(OCC3CCCN3C)nc3c(F)c(-c4nc(N)cc(C)c4C(F)(F)F)c(Cl)cc23)C(C)C1
Given back: 45.4

Asked: // lookup viability, T/C for CC1(O)CCCC1n1c(=O)c(C(F)F)cc2cnc(NC3CCN(S(C)(=O)=O)CC3)nc21 (stereo not given) + C=CC(=O)N1CCN(c2nc(OCC3CCCN3C)nc3c(F)c(-c4nc(N)cc(C)c4C(F)(F)F)c(Cl)cc23)C(C)C1
Given back: 21

Asked: So what does the record say about viability, T/C for CC(C)NCC(C(=O)N1CCN(c2ncnc3c2C(C)CC3O)CC1)c1ccc(Cl)cc1 (stereo not given) + C=CC(=O)N1CCN(c2nc(OCC3CCCN3C)nc3c(F)c(-c4nc(N)cc(C)c4C(F)(F)F)c(Cl)cc23)C(C)C1 ?
Given back: 34.2
